Attribution: patent US20220378923A1

test system: SU-DHL-4 cells; test: Inhibitory effect on cell viability in SU-DHL-4 cell line (Test Example 1); type: cell-based, human; details: Homo sapiens; SU-DHL-4 (wild type) cells, 72 hours; calculated using the measurement results of test example 1; read-out: SU-DHL-4 WT IC50

- compound: "CCC(=O)N1c2ccccc2[C@H](Nc2ccc(NC(=O)CCCC(=O)Nc3cccc(Oc4ccccc4-c4cn(C)c(=O)cc4OC)c3)cc2)C[C@@H]1C [Compound 16m]"
  IC50 [nM]: 0.62
- compound: "CCC(=O)N1c2ccccc2[C@H](Nc2ccc(NC(=O)C3CN(C(=O)C4CCN(Cc5cc(O)cc(-c6c(C)noc6C)c5)CC4)C3)cc2)C[C@@H]1C [Compound 12b]"
  IC50 [nM]: 2.83
- compound: "CCC(=O)N1c2ccccc2[C@H](Nc2ccc(NC(=O)CCNC(=O)c3ccc(N[C@@H]4C[C@H](C)N(C(=O)CC)c5ccccc54)cc3)cc2)C[C@@H]1C (relative stereo)"
  IC50 [nM]: 0.09
- compound: "CCC(=O)N1c2ccccc2[C@H](Nc2ccc(C(=O)N3CCn4c(-c5ccc(N[C@@H]6C[C@H](C)N(C(=O)CC)c7ccccc76)cc5)cnc4C3)cc2)C[C@@H]1C"
  IC50 [nM]: 0.1
- compound: "CCC(=O)N1c2ccccc2[C@H](Nc2ccc(NC(=O)CCCC(=O)NC3CCN(Cc4cc(O)cc(-c5c(C)noc5C)c4)CC3)cc2)C[C@@H]1C [Compound 12c]"
  IC50 [nM]: 0.22
- compound: "Cc1sc2c(c1C)C(c1ccc(C(=O)NCCCNC(=O)c3ccc(C4=N[C@@H](CC(=O)OC(C)(C)C)c5nnc(C)n5-c5sc(C)c(C)c54)cc3)cc1)=N[C@@H](CC(=O)OC(C)(C)C)c1nnc(C)n1-2"
  IC50 [nM]: 0.65
- compound: "CCC(=O)N1c2ccccc2C(Nc2ccc(NC(=O)C#CCNC(=O)c3ccc(N[C@@H]4C[C@H](C)N(C(=O)CC)c5ccccc54)cc3)cc2)CC1C (stereo partly drawn)"
  IC50 [nM]: 0.003
- compound: "CCC(=O)N1c2ccccc2[C@H](NCC23CCC(C(=O)N4CC(C(=O)Nc5ccc(N[C@@H]6C[C@H](C)N(C(=O)CC)c7ccccc76)cc5)C4)(CC2)CC3)C[C@@H]1C (relative stereo) [Compound 17o]"
  IC50 [nM]: 0.78
- compound: "CCC(=O)N1c2ccccc2[C@H](Nc2ccc(C(=O)NCc3cn(-c4ccc(N[C@@H]5C[C@H](C)N(C(=O)CC)c6ccccc65)cc4)nn3)cc2)C[C@@H]1C"
  IC50 [nM]: 0.025
- compound: "CCC(=O)N1c2ccccc2[C@H](Nc2ccc(-n3cc(CNC(=O)c4ccc(Cn5c(CC)cc6c5CCCC6=O)cc4)nn3)cc2)C[C@@H]1C [Compound 15f]"
  IC50 [nM]: 0.03
- compound: "CCC(=O)N1c2ccccc2[C@H](NCc2ccc(C(=O)N3CC(C(=O)Nc4ccc(N[C@@H]5C[C@H](C)N(C(=O)CC)c6ccccc65)cc4)C3)cc2)C[C@@H]1C (relative stereo) [Compound 10g]"
  IC50 [nM]: 0.91
- compound: "CCC(=O)N1c2ccccc2[C@H](Nc2ccc(CCCC(=O)Nc3ccc(N[C@@H]4C[C@H](C)N(C(=O)CC)c5ccccc54)cc3)cc2)C[C@@H]1C"
  IC50 [nM]: 0.53
